target: Fuc(a1-3)[Gal(b1-4)]GlcNAc; assay: glycan array binding signal (z-score within array); higher = stronger binding; details: glycan notation: IUPAC condensed, linker removed
The full list was thinned out, with the strongest signals kept by preference.
experimental readout: glycan array binding signal (z-score)
Answers are plain numbers.

Data point: PNGase F (Flavobacterium meningosepticum) (protein) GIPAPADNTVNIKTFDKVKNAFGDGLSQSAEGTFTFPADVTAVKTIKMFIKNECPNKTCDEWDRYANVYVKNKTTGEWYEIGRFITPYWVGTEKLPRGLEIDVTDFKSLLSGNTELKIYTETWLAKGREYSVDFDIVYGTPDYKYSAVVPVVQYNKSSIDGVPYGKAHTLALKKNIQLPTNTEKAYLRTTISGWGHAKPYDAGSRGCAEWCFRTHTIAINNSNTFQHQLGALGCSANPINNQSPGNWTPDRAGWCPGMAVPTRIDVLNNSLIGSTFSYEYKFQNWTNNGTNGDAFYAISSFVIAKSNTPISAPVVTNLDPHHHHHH ; glycan array binding signal (z-score) = 0.02

Next, consider the following binder.
Data point: EcCDA (Encephalitazoon cuniculi), Q8SU65 (protein) MLLCLLYFTSSWCSGSDVPDVCTNSGMIAINFVDGPVRGVTDRILNTLDELGVKATFSFTVNQKAVGNVGQLYRRAVEEGHNVALRVDPSMDEGYQCLSQDALENNVDREIDTIDGLSGTEIRYAAVPICNGQVNSEMYNILTERGVLPVGYTFCPYDYDDPVGEFESMIEGSDPKHHSFIILMHDGQEADTSRLENMVKIGKDKGYRFVNMDECLQGYKGAPGDPELSLRGKGVESIGKGFLPFFLMMLVRLL ; glycan array binding signal (z-score) = -0.055

Hey, just so you know, these numbers are from the supplement of paper PMC8728848.
